- subject_of_test: biotinylated histone H3 peptide trimethylated at lysine 27, H3K27me3 (21-44) (UniProt P68431 22-45, trimethyl-lysine at K27; biotinylated)
- experimental_details: peptide microspot array; apparent Kd; 20 uM H3K27me3; replicate 2
recorded_metric: Kd
Quick note: unit goes after the number.

Ask: Find the recorded Kd belonging to PcTF, monovalent Polycomb-based transcription factor (pET28 construct, purified from E. coli) (designed binder) MELSAVGERVFAAEALLKRRIRKGRMEYLVKWKGWSQKYSTWEPEENILDARLLAAFEERER and report it.
Result: 5.66 µM

The reported measurements were obtained from patent US20190248848A1.
